Test: In vivo pharmacokinetic studies in rats
Design: species or system SD rats
Conditions: Sprague-Dawley (SD), rat, plasma, po, 10 mg/kg, rats, single 10 mg/kg PO dose, Mean of 3 animals
ASSAY_ENDPOINT: half-life (h)
Number only, in h; omit the unit.

CC[C@@H](O)c1csc(C(=O)c2c[nH]c3cc(F)ccc23)n1 [ARI-165] : 1.09

Shift focus to the following entry.
Please fill in: half-life reported for CC[C@H](O)c1csc(C(=O)c2c[nH]c3cc(F)ccc23)n1 [ARI-164] = 1.37

###

Biological target: AhR (Homo sapiens, UniProt P35869)
Construct: host or cells: human HepG2 cells
Sequence (P35869 11-848): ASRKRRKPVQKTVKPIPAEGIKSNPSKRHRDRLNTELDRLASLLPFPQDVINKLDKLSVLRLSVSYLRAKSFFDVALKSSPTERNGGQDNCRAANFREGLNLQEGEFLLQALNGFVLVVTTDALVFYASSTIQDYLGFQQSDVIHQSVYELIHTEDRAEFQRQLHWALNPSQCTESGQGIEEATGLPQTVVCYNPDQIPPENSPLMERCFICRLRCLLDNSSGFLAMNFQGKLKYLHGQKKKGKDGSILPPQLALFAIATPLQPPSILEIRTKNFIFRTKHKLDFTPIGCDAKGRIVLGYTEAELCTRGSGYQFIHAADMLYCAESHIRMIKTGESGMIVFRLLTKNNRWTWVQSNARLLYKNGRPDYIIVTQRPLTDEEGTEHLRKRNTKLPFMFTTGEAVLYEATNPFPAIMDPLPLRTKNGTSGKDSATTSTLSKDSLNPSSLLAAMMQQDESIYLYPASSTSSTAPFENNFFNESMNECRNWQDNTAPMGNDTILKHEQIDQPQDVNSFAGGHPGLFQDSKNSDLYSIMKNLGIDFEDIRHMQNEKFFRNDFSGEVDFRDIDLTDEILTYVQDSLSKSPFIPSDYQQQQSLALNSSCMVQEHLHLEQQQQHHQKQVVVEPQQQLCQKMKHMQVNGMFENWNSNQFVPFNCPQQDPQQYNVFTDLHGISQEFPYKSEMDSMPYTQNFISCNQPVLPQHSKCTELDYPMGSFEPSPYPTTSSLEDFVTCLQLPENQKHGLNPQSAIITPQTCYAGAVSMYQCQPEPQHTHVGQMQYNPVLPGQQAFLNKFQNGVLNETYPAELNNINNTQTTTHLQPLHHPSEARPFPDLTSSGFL
Assay: EROD assay (7-ethoxy-resorufin-O-deethylase; CYP1A1 activity) in human HepG2 cells
Type: cell-based
Settings: human HepG2 cells, Plate 1
ASSAY_ENDPOINT: EC90 (µM)
Number only, in µM; omit the unit.

Please fill in: EC90 reported for COC(=O)c1csc(C(=O)c2c[nH]c3ccccc23)n1 [ARI-001, ITE, reference compound] = 13.2

###

Catalogue of EC90 readings, one per entry.
Target: AhR (Homo sapiens, UniProt P35869)
Construct: host or cells: human HepG2 cells
Test: EROD assay (7-ethoxy-resorufin-O-deethylase; CYP1A1 activity) in human HepG2 cells
Type: cell-based
Settings: HepG2, human HepG2 cells, Plate 2
Number only, in nM; omit the unit.

Please fill in: EC90 reported for N[C@H](c1csc(C(=O)c2c[nH]c3cc(F)ccc23)n1)C(F)(F)F = 103

Please fill in: EC90 reported for N[C@H](c1csc(C(=O)c2c[nH]c3ccccc23)n1)C(F)(F)F = 217

Please fill in: EC90 reported for CC[C@@H](N)c1csc(C(=O)c2c[nH]c3ccc(F)cc23)n1 = 419

###

Assay: CYP profiling: turnover in human liver microsomes, 30 min, no inhibitor
Assay type: in vitro ADME
Conditions: HLMs
ASSAY_ENDPOINT: metabolic turnover (in words)

A selection of reference data follows.
CC(C)(N)c1csc(C(=O)c2c[nH]c3cc(F)ccc23)n1 : low turnover
N[C@@H](c1csc(C(=O)c2c[nH]c3cc(F)ccc23)n1)C(F)(F)F : low turnover
N[C@H](c1csc(C(=O)c2c[nH]c3cc(F)ccc23)n1)C(F)(F)F : high turnover
NC1(c2csc(C(=O)c3c[nH]c4cc(F)ccc34)n2)CC1 : high turnover

Shift focus to the following entry.
Please fill in: metabolic turnover (in words) reported for N[C@H](c1csc(C(=O)c2c[nH]c3ccccc23)n1)C(F)(F)F = high turnover

###

Assay: In vivo pharmacokinetic studies in rats
Design: species or system SD rats
Conditions: Sprague-Dawley, rat, plasma, po, 10 mg/kg, rats, repeat 10 mg/kg PO QD, Day 1, individual animal
Method: This example describes pharmacokinetic (PK) studies of ARI-164, ARI-165, ARI-186, ARI-224, and ARI-226 in mice and rats. In the present studies, the test compounds were given to groups of mice and/or rats (N=3 in each group), intravenously (IV) at 2 mg/kg or orally (PO) at 10, 30, or 40 mg/kg. […] Plasma concentrations of the test compounds were determined by HPLC.
ASSAY_ENDPOINT: AUC(0-inf) (ng·h/mL)
Number only, in ng·h/mL; omit the unit.

Please fill in: AUC(0-inf) reported for CC[C@H](N)c1csc(C(=O)c2c[nH]c3cc(F)ccc23)n1 = 6920

###

Test: In vivo pharmacokinetic studies in rats
Parameters: species or system SD rats
Conditions: SD, rat, plasma, po, 10 mg/kg, rats, PO 10 mg/kg repeat dose, Day 1, Mean of 3 animals; read-out: Tmax
ASSAY_ENDPOINT: Tmax at 1 day (h)
Number only, in h; omit the unit.

Please fill in: Tmax at 1 day reported for CC(C)(N)c1csc(C(=O)c2c[nH]c3cc(F)ccc23)n1 = 4

###

Biological target: CYP3A4 (Homo sapiens, UniProt P08684)
Construct: from tissue; host or cells: human liver microsomes
Sequence (P08684 whole entry): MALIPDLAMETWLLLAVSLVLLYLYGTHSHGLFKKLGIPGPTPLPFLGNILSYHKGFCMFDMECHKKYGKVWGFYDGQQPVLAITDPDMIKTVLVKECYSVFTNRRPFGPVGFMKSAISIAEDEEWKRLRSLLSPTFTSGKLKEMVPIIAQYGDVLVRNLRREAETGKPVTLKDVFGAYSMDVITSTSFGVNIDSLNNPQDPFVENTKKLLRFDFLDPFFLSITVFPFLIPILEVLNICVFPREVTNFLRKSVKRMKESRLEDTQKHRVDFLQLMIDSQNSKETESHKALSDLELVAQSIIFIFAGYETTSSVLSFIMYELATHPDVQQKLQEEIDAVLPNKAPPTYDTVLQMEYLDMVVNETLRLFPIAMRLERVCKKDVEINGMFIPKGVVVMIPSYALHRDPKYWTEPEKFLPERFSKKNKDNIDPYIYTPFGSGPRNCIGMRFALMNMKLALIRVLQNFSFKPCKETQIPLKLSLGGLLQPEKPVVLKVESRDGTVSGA
Experiment: CYP profiling: human liver microsomes with CYP3A4 inhibitor ketoconazole
Format: in vitro ADME
Settings: HLMs, 30 min
Returns one of Fulfilled or Not fulfilled; Fulfilled when % Inhibition Relative to Negative Control, 3A4 is >= 40%.

Please review the entries below; each comes with its answer.
N[C@H](c1csc(C(=O)c2c[nH]c3cc(F)ccc23)n1)C(F)(F)F : Fulfilled
CC[C@H](N)c1csc(C(=O)c2c[nH]c3ccc(F)cc23)n1 : Fulfilled
CC[C@H](N)c1csc(C(=O)c2c[nH]c3cc(F)ccc23)n1 : Not fulfilled

Does % Inhibition Relative to Negative Control, 3A4 meet or surpass 40% for O=C(c1nc([C@H](O)C(F)(F)F)cs1)c1c[nH]c2cc(F)ccc12 ?
Fulfilled

Does % Inhibition Relative to Negative Control, 3A4 meet or surpass 40% for O=C(c1nc(C2(O)CC2)cs1)c1c[nH]c2cc(F)ccc12 ?
Not fulfilled

Does % Inhibition Relative to Negative Control, 3A4 meet or surpass 40% for CC(C)(O)c1csc(C(=O)c2c[nH]c3cc(F)ccc23)n1 ?
Not fulfilled

Does % Inhibition Relative to Negative Control, 3A4 meet or surpass 40% for N[C@@H](c1csc(C(=O)c2c[nH]c3cc(F)ccc23)n1)C(F)(F)F ?
Not fulfilled

###

Assay: In vivo pharmacokinetic studies in mice
Parameters: species or system Balb/C mice
Conditions: mouse, plasma; Balb/C mice, single dose PO 40 mg/kg
ASSAY_ENDPOINT: Tmax (h)
Number only, in h; omit the unit.

Please fill in: Tmax reported for CC[C@H](N)c1csc(C(=O)c2c[nH]c3cc(F)ccc23)n1 [ARI-186] = 2

###

Assay: In vivo pharmacokinetic studies in rats
Set-up: species or system SD rats
Settings: male, Sprague-Dawley (SD), rat, plasma, po, 30 mg/kg, male rats, repeat 30 mg/kg oral dose, Day 7, Mean
ASSAY_ENDPOINT: Cmax at 7 day (ng/mL)
Number only, in ng/mL; omit the unit.

Please fill in: Cmax at 7 day reported for CC[C@H](O)c1csc(C(=O)c2c[nH]c3cc(F)ccc23)n1 = 2.93

###

Experiment: In vivo pharmacokinetic studies in rats
Parameters: species or system SD rats
Details: Sprague-Dawley (SD), rat, plasma, po, 10 mg/kg, rats, PO 10 mg/kg repeat dose, Day 1, individual animals (ID 4, 5, 6); read-out: Tmax
ASSAY_ENDPOINT: Tmax (h)
Number only, in h; omit the unit.

Please fill in: Tmax reported for CC(C)(N)c1csc(C(=O)c2c[nH]c3cc(F)ccc23)n1 = 4

###

Test: In vivo pharmacokinetic studies in rats
Design: species or system SD rats
Settings: Sprague-Dawley (SD), rat, plasma, po, 10 mg/kg, rats, repeat 10 mg/kg PO QD, Day 5, individual animal; read-out: AUClast
ASSAY_ENDPOINT: AUC(0-t) (µg·h/mL)
Number only, in µg·h/mL; omit the unit.

Please fill in: AUC(0-t) reported for CC[C@H](N)c1csc(C(=O)c2c[nH]c3cc(F)ccc23)n1 = 33.6

###

Test: In vivo pharmacokinetic studies in rats
Parameters: species or system SD rats
Conditions: male, Sprague-Dawley (SD), rat, plasma, po, 30 mg/kg, male rats, repeat 30 mg/kg oral dose, Day 1, Mean; read-out: AUCTlast
ASSAY_ENDPOINT: AUC(0-t)

Please fill in: AUC(0-t) reported for CC[C@H](O)c1csc(C(=O)c2c[nH]c3cc(F)ccc23)n1 = 1430 ng·h/mL
